Here is a set of compounds with reported IC50 for Glycogen synthase kinase-3 beta (Homo sapiens, UniProt P49841), compiled from the literature.

Input: // output IC50; input `COc1cccc(NCCNc2nccc(-c3ccc(C(=O)NCc4cccc(Br)c4)cc3)n2)n1` ; system Glycogen synthase kinase-3 beta (Homo sapiens, UniProt P49841)
Output: ≤ 10000 nM

Input: // output IC50; input `CC(=O)N1CCC[C@H]1c1nc(Nc2cc(C3CC3)[nH]n2)c2cccn2n1` ; system Glycogen synthase kinase-3 beta (Homo sapiens, UniProt P49841)
Output: 20 nM

Input: // output IC50; input `CCOC(=O)c1ccc(-c2ccnc(NCCNc3ccc([N+](=O)[O-])cn3)n2)cc1` ; system Glycogen synthase kinase-3 beta (Homo sapiens, UniProt P49841)
Output: ≤ 10000 nM

Input: // output IC50; input `O=[N+]([O-])c1ccc(NCCNc2nccc(-c3cnccn3)n2)nc1` ; system Glycogen synthase kinase-3 beta (Homo sapiens, UniProt P49841)
Output: ≤ 10000 nM

Input: // output IC50; input `COc1ccc(OC)c(CCNc2nccc(-c3ccc(C#N)cc3)n2)c1` ; system Glycogen synthase kinase-3 beta (Homo sapiens, UniProt P49841)
Output: ≤ 10000 nM

Input: // output IC50; input `O=C(NCC1CCNCC1)c1ccc(-c2ccnc(NCCNc3ccc([N+](=O)[O-])cn3)n2)cc1` ; system Glycogen synthase kinase-3 beta (Homo sapiens, UniProt P49841)
Output: ≤ 10000 nM

Input: // output IC50; input `O=C(Nc1cccc(C(F)(F)F)n1)Nc1ccnc2c(F)cc(F)cc12` ; system Glycogen synthase kinase-3 beta (Homo sapiens, UniProt P49841)
Output: < 100 nM

Input: // output IC50; input `CC(C)Oc1ccncc1NC(=O)c1ccnn2cc(-c3ccccc3)nc12` ; system Glycogen synthase kinase-3 beta (Homo sapiens, UniProt P49841)
Output: 0.7 nM

Input: // output IC50; input `OCc1cccc(Nc2nccc(-c3cccc(O)c3)n2)c1` ; system Glycogen synthase kinase-3 beta (Homo sapiens, UniProt P49841)
Output: 30 nM
